- system.under.test: human IDO1 (Homo sapiens, UniProt P14902)
- Construct: expressed in transfected cells
- Sequence (P14902 whole entry): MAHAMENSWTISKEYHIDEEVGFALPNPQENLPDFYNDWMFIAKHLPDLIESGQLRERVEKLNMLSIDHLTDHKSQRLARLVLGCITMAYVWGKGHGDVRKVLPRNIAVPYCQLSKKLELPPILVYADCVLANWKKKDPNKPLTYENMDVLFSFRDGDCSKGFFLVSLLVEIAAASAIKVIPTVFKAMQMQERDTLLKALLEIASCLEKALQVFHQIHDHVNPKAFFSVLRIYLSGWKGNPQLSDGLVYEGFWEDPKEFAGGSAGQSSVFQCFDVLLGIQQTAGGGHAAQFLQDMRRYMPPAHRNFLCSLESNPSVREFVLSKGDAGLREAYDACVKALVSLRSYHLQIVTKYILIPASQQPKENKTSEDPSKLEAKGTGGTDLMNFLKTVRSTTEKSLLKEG
- assay.text: HEK Human IDO-1 inhibition assay (kynurenine production in human IDO1/HEK293 cells)
- Format: cell-based
- condition.description: read-out: Bio Activity (μM) IC50
Parameter IC50: see the listing below.

Examples with answers:
C[C@@H](C(=O)NC1(c2ccc(Cl)cc2Cl)CC1)[C@H]1CC[C@@H](c2ccnc3ccc(F)cc32)CC1 [Example 16]
< 1 µM
CC1(CC(=O)NC2(c3ccc(Cl)cc3Cl)CC2)CCN(c2ccnc(C(F)(F)F)c2)CC1 [Example 7]
< 1 µM
Cc1cc(Cl)ccc1CNC(=O)CC1(C)CCN(c2ccnc3ccc(F)cc23)CC1 [Example 1]
< 0.1 µM
CC1(CC(=O)NCc2ccc(Cl)cc2)CCN(c2ccnc3ccc(F)cc23)CC1 [Example 5]
< 1 µM

Lookup result for C[C@@H](C(=O)NC(C)(C)c1ccc(Cl)cc1)[C@H]1CC[C@@H](c2ccnc3ccc(F)cc32)CC1 [Example 15] ; measured IC50: < 1 µM

compound C[C@@H](C(=O)NCc1ccccc1Cl)[C@H]1CC[C@@H](c2ccnc3ccc(F)cc32)CC1 [Example 10] , IC50 observed: < 1 µM

# IC50 of CC1(CC(=O)NC23CC4CC(CC(C4)C2)C3)CCN(c2ccnc3ccc(F)cc23)CC1 [Example 22] = < 0.1 µM

In plain terms, CC1(CC(=O)NC(C)(C)c2ccc(Cl)cc2)CCN(c2ccnc(C(F)(F)F)c2)CC1 [Example 8] has a documented IC50 of < 10 µM

Quick note, IC50 for CC1(CC(=O)NC(C)(C)c2ccc(Cl)cc2)CCN(c2ccnc3ccc(F)cc23)CC1 [Example 3] landed at < 0.1 µM

Query CC1(CC(=O)NC2(c3ccc(Cl)cc3Cl)CC2)CCN(c2ccnc3ccc(F)cc23)CC1 [Example 2] yields IC50 of < 0.1 µM

Field IC50 (entry C[C@H](NC(=O)CC1(C)CCN(c2ccnc(C(F)(F)F)c2)CC1)c1ccc(Cl)cc1 [Example 9] ) reads < 1 µM

The measured IC50 associated with CC1(CC(=O)N[C@@]23C[C@@H]4C[C@@H](C[C@@](O)(C4)C2)C3)CCN(c2ccnc3ccc(F)cc23)CC1 [Example 23] reads < 1 µM

GET /value?item= C[C@H](NC(=O)[C@H](C)[C@H]1CC[C@@H](c2ccnc3ccc(F)cc32)CC1)c1ccccc1 [Example 13] &field=IC50 returns < 1 µM

Recorded result, CC[C@H](NC(=O)CC1(C)CCN(c2ccnc(C(F)(F)F)c2)CC1)c1ccccc1 [Example 6] , IC50: < 1 µM

Just so you know, measured IC50 for C[C@@H](NC(=O)[C@H](C)[C@H]1CC[C@@H](c2ccnc3ccc(F)cc32)CC1)c1ccc(Cl)cc1 [Example 17] came out at < 10 µM

Form field IC50, entry C[C@H](NC(=O)CC1(C)CCN(c2ccnc3ccc(F)cc23)CC1)c1ccc(Cl)cc1 [Example 4] : < 0.1 µM

Kindly note the recorded IC50 for C[C@H](NC(=O)[C@H](C)[C@H]1CC[C@@H](c2ccnc3ccc(F)cc32)CC1)c1ccc(Cl)cc1 [Example 14] , which is < 0.1 µM

// sample C[C@@H](C(=O)NCc1ccc(-c2ccccc2)cc1)[C@H]1CC[C@@H](c2ccnc3ccc(F)cc32)CC1 [Example 12] , its IC50 was < 1 µM

For this compound ( CCCC(C(=O)NC12CC3CC(CC(C3)C1)C2)N1CCN(c2ccnc3ccc(F)cc23)CC1 (single isomer, unassigned) [Example 19-1] ), measured IC50 is < 10 µM

// IC50 lookup, compound = C[C@@H](C(=O)NCc1ccccc1)[C@H]1CC[C@@H](c2ccnc3ccc(F)cc32)CC1 [Example 18] , result: < 10 µM
